- System: UACC-257 melanoma
- EXPERIMENTAL DETAILS: NCI tumour cell line growth inhibition, 48 h

- COMPOUND: "C/C(=N/O)c1ccc2c(c1)C(=NO)c1cc(/C(C)=N/O)ccc1-2"
  SYSTEM TESTED: "UACC-257 melanoma"
  RELATIONAL OPERATOR: "="
  TGI [µM]: 5.87
- COMPOUND: "CC(=O)CC1(C)OC(N)=C(C#N)C1(C#N)C#N (stereo not given)"
  SYSTEM TESTED: "UACC-257 melanoma"
  RELATIONAL OPERATOR: ">"
  TGI [µM]: 100
- COMPOUND: "CC1=C2C(=O)c3ccccc3C(=O)[C@H]2C[C@@H](N2CCCCCC2=O)O1"
  SYSTEM TESTED: "UACC-257 melanoma"
  RELATIONAL OPERATOR: "="
  TGI [µM]: 31.2
- COMPOUND: "Cc1ccc2c(c1)CC1(C2=O)[C@H](c2ccccc2)C2C(=O)c3ccc(C)cc3C2[C@H]1c1ccccc1 (stereo not given in full)"
  SYSTEM TESTED: "UACC-257 melanoma"
  RELATIONAL OPERATOR: ">"
  TGI [µM]: 100
- COMPOUND: "O=C(/C=C/c1ccco1)c1cccc(C(=O)/C=C/c2ccco2)n1"
  SYSTEM TESTED: "UACC-257 melanoma"
  RELATIONAL OPERATOR: ">"
  TGI [µM]: 100
- COMPOUND: "Nc1ncnc2c1c(-c1ccc(Oc3ccccc3)cc1)nn2C[C@@H]1SSC[C@@H]1O"
  SYSTEM TESTED: "UACC-257 melanoma"
  RELATIONAL OPERATOR: "="
  TGI [µM]: 11.9
- COMPOUND: "CCCCCCOP(=O)(OCCCCCC)OC(C(=O)OC)C(F)(F)F (stereo not given)"
  SYSTEM TESTED: "UACC-257 melanoma"
  RELATIONAL OPERATOR: ">"
  TGI [µM]: 100
- COMPOUND: "COc1ccc(C=Nc2ccc(-c3nc4ccccc4[nH]3)cc2)cc1OC"
  SYSTEM TESTED: "UACC-257 melanoma"
  RELATIONAL OPERATOR: ">"
  TGI [µM]: 100
- COMPOUND: "Cc1n(Cc2ccc3ccccc3c2)c(Cl)c(Cl)[n+]1Cc1ccc2ccccc2c1"
  SYSTEM TESTED: "UACC-257 melanoma"
  RELATIONAL OPERATOR: "="
  TGI [µM]: 4.21
- COMPOUND: "CN(C)C(=O)SC1=C(c2c(Cl)cccc2Cl)C(=O)c2ccccc21"
  SYSTEM TESTED: "UACC-257 melanoma"
  RELATIONAL OPERATOR: "="
  TGI [µM]: 9.81

====

- System: RPMI-8226 leukemia
- EXPERIMENTAL DETAILS: NCI tumour cell line growth inhibition, 48 h
Listed below: TGI values for each entry.
MEASUREMENT TYPE: TGI

- COMPOUND: "CCCCCCCCCC(=O)Oc1cccc2onc(C)c12"
  MEASUREMENT TYPE: "TGI"
  MEASURED: "> 100 µM"
- COMPOUND: "COc1ccc(C2=C(OC(=O)N(C)C)c3cccn3-c3cc(Cl)ccc3S2)cc1"
  MEASUREMENT TYPE: "TGI"
  MEASURED: "> 10 µM"
- COMPOUND: "CCOC(=O)C1CCCCc2sc(N)c(C#N)c21 (stereo unspecified)"
  MEASUREMENT TYPE: "TGI"
  MEASURED: "> 100 µM"
- COMPOUND: "O=C(CCN1CCCC1)Nc1ccc2c(Nc3ccccc3)c3ccccc3nc2c1"
  MEASUREMENT TYPE: "TGI"
  MEASURED: "1.65 µM"
- COMPOUND: "CCOC(=O)c1nc2ccccc2nc1NCc1ccc(Cl)cc1Cl"
  MEASUREMENT TYPE: "TGI"
  MEASURED: "> 100 µM"
- COMPOUND: "CC(=O)NC1=C(NCC(C)C)C(=O)c2ccccc2C1=O"
  MEASUREMENT TYPE: "TGI"
  MEASURED: "> 100 µM"
- COMPOUND: "CCCNC(=O)CCC(C)[C@H]1CCC2C3C(C[C@H](OC(C)=O)[C@@]21C)[C@@]1(C)CCC2(C[C@H]1C[C@H]3OC(C)=O)OOC1(CCCCC1)OO2 (stereo partly specified)"
  MEASUREMENT TYPE: "TGI"
  MEASURED: "4.68 µM"
- COMPOUND: "COc1ccc(-c2nc(-c3cnccn3)n(C3OC(CO)C(O)C(O)C3O)n2)cc1 (stereo unspecified)"
  MEASUREMENT TYPE: "TGI"
  MEASURED: "> 100 µM"
- COMPOUND: "CCOC1=C2NC(Cc3ccc(F)cc3)=NC2C(=O)c2ccccc21 (stereo unspecified)"
  MEASUREMENT TYPE: "TGI"
  MEASURED: "37.8 µM"
- COMPOUND: "OC12CCCCCC1(N1CCOCC1)c1ccccc12 (stereo unspecified)"
  MEASUREMENT TYPE: "TGI"
  MEASURED: "> 100 µM"
- COMPOUND: "CCCCCCCCCCCCCCCCOCC(Cl)COP(=O)(O)OP(=O)(O)OCC1OC(n2cnc3c(N)ncnc32)C(O)C1O (stereo unspecified)"
  MEASUREMENT TYPE: "TGI"
  MEASURED: "> 100 µM"

====

- Test system: SK-MEL-5 melanoma
- EXPERIMENTAL DETAILS: NCI tumour cell line growth inhibition, 48 h
MEASUREMENT TYPE: TGI

- MOLECULE: "CC(=O)O[C@H]1C(=O)N(c2cc3c4ccccc4ccc3c3ccccc23)[C@@H]1c1ccccc1"
  MEASURED: "67.1 µM"
- MOLECULE: "O=c1oc2ccc(Cl)cc2cc1-c1cn2ccsc2n1"
  MEASURED: "> 100 µM"
- MOLECULE: "Cc1cc2occ(-c3ccc(Cl)cc3)c2c(=O)o1"
  MEASURED: "> 100 µM"
- MOLECULE: "C=C[C@@](C)(/C=C/c1ccc(O)cc1)CCC=C(C)C"
  MEASURED: "30.7 µM"
- MOLECULE: "C/C(=N/O)c1ccc2c(c1)C(=NO)c1cc(/C(C)=N/O)ccc1-2"
  MEASURED: "28.5 µM"
- MOLECULE: "COC(=O)/C=C/c1ccc2c(c1)CC1(Cc3ccccc3C1)C2"
  MEASURED: "> 100 µM"
- MOLECULE: "CCN(CC)CCCCC1CCN(CC(=O)N2c3ccccc3NC(=O)CC2C)CC1 (stereo unspecified)"
  MEASURED: "> 100 µM"
- MOLECULE: "C[C@@]12CCCC(=O)N1[C@@H](CO)C(c1ccccc1)O2 (stereo partly specified)"
  MEASURED: "> 100 µM"
- MOLECULE: "[N-]=[N+]=C(C(=O)C(=[N+]=[N-])C(=O)c1ccccc1)C(=O)c1ccccc1"
  MEASURED: "> 100 µM"
- MOLECULE: "COc1ccc2c(c1)nc1n2C(c2ccc(F)cc2)SC1 (stereo unspecified)"
  MEASURED: "28.7 µM"
- MOLECULE: "C[N+](C)=c1nc(N2CCOCC2)ss1"
  MEASURED: "> 100 µM"

====

- Tested on: SNB-19 CNS
- EXPERIMENTAL DETAILS: NCI tumour cell line growth inhibition, 48 h; in the data active means GI50 below about 0.43 µM; inactive means the rest
Possible outcomes: Y = active, N = inactive

- COMPOUND: "Fc1c[c-]c(-c2ccccn2)c(F)c1.[CH3-].[Pt+2].c1ccc(P(C[PH+](c2ccccc2)c2ccccc2)c2ccccc2)cc1"
  CLASS LABEL: "Y"
- COMPOUND: "COc1ccc(-c2cc(/C=C/C(=O)c3cc(OC)c(OC)c(OC)c3)[nH]n2)cc1OC"
  CLASS LABEL: "N"
- COMPOUND: "Oc1[nH]c2ccccc2c1/C=c1/cc2c(c(-c3ccc(C(F)(F)F)cc3)n1)=Nc1ccccc1-2"
  CLASS LABEL: "N"
- COMPOUND: "COc1ccc(C2ONC3=NCCN32)cc1 (stereo not given)"
  CLASS LABEL: "N"
- COMPOUND: "C=CC(=O)Nc1cccc(Nc2nc(Nc3ccc(OCCOC(F)F)cc3)ncc2F)c1"
  CLASS LABEL: "N"
- COMPOUND: "O=C(Cc1ccc(/C=C/C(=O)c2ncc[nH]2)cc1)Nc1ccc(C(F)(F)F)cc1"
  CLASS LABEL: "N"
- COMPOUND: "C=CC1=CC(C)C[C@]1(O)C(=O)OC (stereo not given in full)"
  CLASS LABEL: "N"
- COMPOUND: "O=C(Nc1ccc(Cl)cc1)Nc1ccccc1CNc1nc(Nc2ccc(OCCN3CCCC3)cc2)ncc1Cl"
  CLASS LABEL: "N"
- COMPOUND: "Fc1cc(-c2nnc3n2N=C(c2ccc(Cl)cc2Cl)CS3)c(Cl)cc1Cl"
  CLASS LABEL: "N"
- COMPOUND: "CCc1cccc(CC)c1/C=C/c1cncc(C(=O)NC)c1"
  CLASS LABEL: "N"

Where do the numbers come from? From PubChem BioAssay (NCI).
